Test system: multi-drug resistant (Dd2) strain of Plasmodium falciparum
Assay: In vitro antimalarial MSF (SyBrGreen I fluorescence) assay, Dd2 strain
Assay type: cell-based
Settings: Table 2, 72 hrs, average of at least 3 experiments
PROPERTY_LABEL: IC50 (nM)
I only need the number, in nM, no unit after it.

# input # get_value(readout='IC50', item= O=c1c2ccc(Cl)cc2[nH]c2cc(OCCCC(F)(F)F)ccc12 )
# output 1.2

# input # get_value(readout='IC50', item= O=C1C=C(OCCCCCC(F)(F)F)C(=O)c2ccccc21 )
# output 95

# input # get_value(readout='IC50', item= COc1ccc2nc3cc(Cl)ccc3c(N)c2c1 )
# output 42

# input # get_value(readout='IC50', item= O=c1c2ccc(Cl)cc2[nH]c2cc(OCCCCCCl)ccc12 )
# output 13

New cases:
# input # get_value(readout='IC50', item= OC(c1cc(C(F)(F)F)nc2c(C(F)(F)F)cccc12)C1CCCCN1 (racemic) )
# output 8.8

---

Tested on: multi-drug resistant (Dd2) strain of Plasmodium falciparum
Assay: In vitro antimalarial MSF (SyBrGreen I fluorescence) assay, Dd2 strain
Assay type: cell-based
Conditions: Table 2, 72 hrs, average of at least 3 experiments
PROPERTY_LABEL: pIC50
pIC50 is defined as minus the log10 of a concentration measured in mol/L.

# input # get_value(readout='pIC50', item= O=c1c2ccc(Cl)cc2[nH]c2cc(OCCCCCCCCO)ccc12 [compound 29] )
# output 8.46

# input # get_value(readout='pIC50', item= O=c1c2ccccc2[nH]c2cc(O)ccc12 [compound 6] )
# output 6.30

# input # get_value(readout='pIC50', item= O=c1c2ccc(Cl)cc2[nH]c2cc(OCCCCCCCC(F)(F)F)ccc12 [compound 28] )
# output 9.77

# input # get_value(readout='pIC50', item= O=c1c2ccc(Cl)cc2[nH]c2cc(OCCCCCCCCCCC(F)(F)F)ccc12 [compound 30] )
# output 10.60

# input # get_value(readout='pIC50', item= O=c1c2ccccc2[nH]c2ccc(O)cc12 [compound 5] )
# output 5.36

# input # get_value(readout='pIC50', item= CC1CCC2C(C)C(=O)OC3OC4(C)CCC1C32OO4 (stereo not drawn) [compound 39] )
# output 9.05

# input # get_value(readout='pIC50', item= O=c1c2ccc(OCCCCCC(F)(F)F)cc2[nH]c2cc([N+](=O)[O-])ccc12 [compound 33] )
# output 8.24

# input # get_value(readout='pIC50', item= O=c1c2ccccc2[nH]c2ccc(OCCCCCC(F)(F)F)cc12 [compound 25] )
# output 7.31

We now examine a further molecule.
# input # get_value(readout='pIC50', item= CCN(CC)CCCC(C)Nc1ccnc2cc(Cl)ccc12 (racemic) [compound 36] )
# output 6.99

---

System: multi-drug resistant strain (W2) of Plasmodium falciparum
Experiment: In vitro antimalarial activity, W2 strain
Format: cell-based
Details: read-out: IC50 against multi-drug resistant strain (W2)
pIC50: −log10 of the molar value.
PROPERTY_LABEL: pIC50

# input # get_value(readout='pIC50', item= COc1ccc2c(=O)c(CCCCCCCCCCC(F)(F)F)c(C)[nH]c2c1 )
# output ~9.70
